Reference for the values: ChEMBL document CHEMBL1147761

Molecular target: Adenosine A2 receptor (Homo sapiens) (UniProt P29275+P29274)
Experiment: Selectivity of adenosine A2A receptor over adenosine A2B receptor
Assay type: protein assay
I'd be grateful if you could share measured Ratio Ki for these entries.

Query :: Given CCCn1c(=O)c2nc(-c3cnn(Cc4noc(-c5cccc(OC)c5)n4)c3)[nH]c2n(CCC)c1=O , state its recorded Ratio Ki.
Result :: > 37

Query :: Given CCCn1c(=O)c2nc(-c3cnn(Cc4nc(-c5cccc(C)c5)no4)c3)[nH]c2n(CCC)c1=O , state its recorded Ratio Ki.
Result :: > 39

Query :: Given CCCn1c(=O)c2nc(-c3cnn(Cc4noc(-c5cccc(C(F)(F)F)c5)n4)c3)[nH]c2n(CCC)c1=O , state its recorded Ratio Ki.
Result :: > 78

* * *

Biological target: Adenosine receptors; A2b & A3 (Homo sapiens) (UniProt P29275+P0DMS8)
Test: Selectivity of adenosine A3 receptor over adenosine A2B receptor
Assay type: protein assay
MEASUREMENT_TYPE: Ratio Ki

Query :: Given CCCn1c(=O)c2nc(-c3cnn(Cc4noc(-c5ccccc5OC)n4)c3)[nH]c2n(CCC)c1=O , state its recorded Ratio Ki.
Result :: > 100

Query :: Given CCCn1c(=O)c2nc(-c3cnn(Cc4cc(-c5cccc(OC)c5)on4)c3)[nH]c2n(CCC)c1=O , state its recorded Ratio Ki.
Result :: > 38

Query :: Given CCCn1c(=O)c2nc(-c3cnn(Cc4noc(-c5ccc(Cl)cc5)n4)c3)[nH]c2n(CCC)c1=O , state its recorded Ratio Ki.
Result :: > 213

* * *

Biological target: Adenosine receptors; A2b & A3 (Homo sapiens) (UniProt P29275+P0DMS8)
Test: Selectivity of adenosine A3 receptor over adenosine A2B receptor
Assay type: protein assay
Rule: Ratio Ki of 20 or more gives yes; anything lower gives no.

Query :: Given the entry CCCn1c(=O)c2nc(-c3cnn(Cc4nc(-c5cccc(C)c5)no4)c3)[nH]c2n(CCC)c1=O , answer whether its Ratio Ki meets or surpasses 20.
Result :: no

Query :: Given the entry CCCn1c(=O)c2nc(-c3cnn(Cc4noc(-c5ccc(C#N)cc5)n4)c3)[nH]c2n(CCC)c1=O , answer whether its Ratio Ki meets or surpasses 20.
Result :: yes

Query :: Given the entry CCCn1c(=O)c2nc(-c3cnn(Cc4nc(-c5ccc(Cl)cc5)no4)c3)[nH]c2n(CCC)c1=O , answer whether its Ratio Ki meets or surpasses 20.
Result :: no

Query :: Given the entry CCCn1c(=O)c2nc(-c3cnn(Cc4cc(-c5ccccc5OC)on4)c3)[nH]c2n(CCC)c1=O , answer whether its Ratio Ki meets or surpasses 20.
Result :: yes

Query :: Given the entry CCCn1c(=O)c2nc(-c3cnn(Cc4nc(-c5cccc(C(F)(F)F)c5)no4)c3)[nH]c2n(CCC)c1=O , answer whether its Ratio Ki meets or surpasses 20.
Result :: yes

Query :: Given the entry CCCn1c(=O)c2[nH]c(-c3cnn(Cc4cc(-c5ccccc5)on4)c3)nc2n(CCC)c1=O , answer whether its Ratio Ki meets or surpasses 20.
Result :: yes

Query :: Given the entry CCCn1c(=O)c2nc(-c3cnn(Cc4nc(-c5cccc(Cl)c5)no4)c3)[nH]c2n(CCC)c1=O , answer whether its Ratio Ki meets or surpasses 20.
Result :: no

* * *

Target: Adenosine receptors; A1 & A2b (Homo sapiens) (UniProt P30542+P29275)
Assay: Selectivity of adenosine A1 receptor over adenosine A2B receptor
Format: protein assay
MEASUREMENT_TYPE: Ratio Ki

Query :: Short answer please: Ratio Ki, Adenosine receptors; A1 & A2b (Homo sapiens) (UniProt P30542+P29275), entry CCCn1c(=O)c2nc(-c3cnn(Cc4cc(-c5ccccc5Cl)on4)c3)[nH]c2n(CCC)c1=O
Result :: > 54

Query :: Short answer please: Ratio Ki, Adenosine receptors; A1 & A2b (Homo sapiens) (UniProt P30542+P29275), entry CCCn1c(=O)c2nc(-c3cnn(Cc4noc(-c5ccc(C(F)(F)F)cc5)n4)c3)[nH]c2n(CCC)c1=O
Result :: > 285

Query :: Short answer please: Ratio Ki, Adenosine receptors; A1 & A2b (Homo sapiens) (UniProt P30542+P29275), entry CCCn1c(=O)c2nc(-c3cnn(Cc4noc(-c5cccc(C(F)(F)F)c5)n4)c3)[nH]c2n(CCC)c1=O
Result :: > 93
